Some compounds, each annotated with its measured IC50.
target: Large neutral amino acids transporter small subunit 1 (Homo sapiens, UniProt Q01650); experiment: Cis-inhibition of human LAT1 expressed in TREx HEK293 cells assessed as inhibition of [3H]-gabapentin uptake preincubated for 3 mins at 37 degC followed by washing with choline buffer and measured after 3 hrs by scintillation counting analysis
Sequence (Q01650 whole entry): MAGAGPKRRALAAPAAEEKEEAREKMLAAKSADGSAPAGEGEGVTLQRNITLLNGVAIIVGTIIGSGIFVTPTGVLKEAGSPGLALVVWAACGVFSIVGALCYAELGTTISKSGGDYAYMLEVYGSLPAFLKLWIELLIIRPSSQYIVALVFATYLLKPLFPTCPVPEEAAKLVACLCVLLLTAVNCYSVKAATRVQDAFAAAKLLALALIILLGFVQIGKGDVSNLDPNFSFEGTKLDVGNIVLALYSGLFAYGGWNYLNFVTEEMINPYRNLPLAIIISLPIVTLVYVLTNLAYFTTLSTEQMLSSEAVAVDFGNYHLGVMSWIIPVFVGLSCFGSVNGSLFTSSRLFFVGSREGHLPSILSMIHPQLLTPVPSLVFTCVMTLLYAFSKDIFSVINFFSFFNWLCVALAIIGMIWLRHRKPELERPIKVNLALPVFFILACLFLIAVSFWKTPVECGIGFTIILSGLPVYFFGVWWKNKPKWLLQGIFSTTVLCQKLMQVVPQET

Structure	IC50
N[C@@H](Cn1cc(-c2ccccc2)nn1)C(=O)O	> 1000 µM
N[C@@H](Cn1cc(CO)nn1)C(=O)O	> 1000 µM
Cn1cc(C[C@H](N)C(=O)O)nn1	> 1000 µM
